System name: human CXCR4 receptor with a C-terminal linear C9 peptide tag (human)
Experiment summary: SPR (Biacore 2000), C9-tagged CXCR4 captured by 1D4 antibody, antibody injected, 4 °C
Items are presented alongside their recorded Kd.

Which Kd value is on record for Antibody I (antibody, human IgG4 S228P, kappa, F234A L235A, V domains shown) VH: EVQLVESGGGLVQPGGSLRLSCAASGFTSTDYYFSWVRQAPGKGLEWVGFIRTKSKGYTTEYSGSVKGRFTISRDDSKNSLYLQMNSLKTEDTAVYYCAREPITTDPRDYWGQGTLVTVSS VL: DIVMTQSPDSLAVSLGERATINCKSSQSLFNSRTRKKYLAWYQQKPGQPPKLLIYWASKRKSGVPDRFSGSGSGTDFTLTISSLQAEDVAVYYCKQSRFLRAFGQGTKLEIKR ?
0.68 nM

Which Kd value is on record for Antibody II (antibody, human IgG4 S228P, kappa, F234A L235A, V domains shown) VH: EVQLVESGGGLVQPGGSLRLSCAASGFTSTDYYFSWVRQAPGKGLEWVGFIRSKSKGYTTEYSGSVKGRFTISRDDSKNSLYLQMNSLKTEDTAVYYCAREPITTDPRDYWGQGTLVTVSS VL: DIVMTQSPDSLAVSLGERATINCKSSQSLFNSRTRKKYLAWYQQKPGQPPKLLIYWASKRKSGVPDRFSGSGSGTDFTLTISSLQAEDVAVYYCKQSRFLRAFGQGTKLEIKR ?
0.72 nM

Which Kd value is on record for Antibody III (antibody, human IgG4 S228P, kappa, F234A L235A, V domains shown, Human engineered anti-CXCR4 antibody; also called the antibody III) VH: EVQLVESGGGLVQPGGSLRLSCAASGFTSTDYYFSWVRQAPGKGLEWVGFIRYKSKGYTTEYSGSVKGRFTISRDDSKNSLYLQMNSLKTEDTAVYYCAREPITTDPRDYWGQGTLVTVSS VL: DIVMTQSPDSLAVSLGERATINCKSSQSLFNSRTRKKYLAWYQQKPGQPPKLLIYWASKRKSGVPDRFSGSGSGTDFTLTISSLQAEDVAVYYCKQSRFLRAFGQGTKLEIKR ?
1.54 nM

Which Kd value is on record for Antibody V (antibody, human IgG4 S228P, kappa, F234A L235A, V domains shown) VH: EVQLVESGGGLVQPGGSLRLSCAASGFTSTDYYFSWVRQAPGKGLEWVGFIRHKSKGYTTEYSGSVKGRFTISRDDSKNSLYLQMNSLKTEDTAVYYCAREPITTDPRDYWGQGTLVTVSS VL: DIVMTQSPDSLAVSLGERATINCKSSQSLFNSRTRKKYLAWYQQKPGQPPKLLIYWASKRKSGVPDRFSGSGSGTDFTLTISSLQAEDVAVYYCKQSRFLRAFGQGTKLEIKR ?
0.88 nM

Others:
Which Kd value is on record for Antibody IV (antibody, human IgG4 S228P, kappa, F234A L235A, V domains shown) VH: EVQLVESGGGLVQPGGSLRLSCAASGFTSTDYYFSWVRQAPGKGLEWVGFIRNKRKGYTTEYSGSVKGRFTISRDDSKNSLYLQMNSLKTEDTAVYYCAREPITTDPRDYWGQGTLVTVSS VL: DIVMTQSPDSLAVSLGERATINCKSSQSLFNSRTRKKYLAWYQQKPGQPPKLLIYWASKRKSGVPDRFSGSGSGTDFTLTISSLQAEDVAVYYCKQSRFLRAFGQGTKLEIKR ?
5.14 nM
